recorded.metric: melting point

Recorded results for 6 compounds are shown here.
- compound: "Fc1ccccc1Cn1nc(-c2nc(C(F)(F)F)cc(C(F)(F)F)n2)c2cccnc21"
  melting point: "109 °C"
- compound: "CC(=O)NCC1CN(c2ccc(N3CC4CCCN(C(=O)COC(C)=O)C4C3)c(F)c2)C(=O)O1 (centres undefined)"
  melting point: "113 to 116 °C"
- compound: "CCCCCOC(=O)c1cc(O)c2c(n1)c(C)cc1c(O)cc(C(=O)OCCCCC)nc12"
  melting point: "137 to 139 °C"
- compound: "Cc1sc(C(=O)NCc2ccc3c(c2)OCO3)cc1[N+](=O)[O-]"
  melting point: "181 to 183 °C"
- compound: "CC(C)(C)CCN1C(=O)C(N)C(=O)N(c2ccccc2F)c2ccccc21 (centres undefined)"
  melting point: "98 to 100 °C"
- compound: "COc1cc(N)c2nc(Cl)cc(C)c2c1Oc1cccc(C(F)(F)F)c1"
  melting point: "133 to 135 °C"

# compound Clc1ccc2ccc(COc3ccc4c(c3)C(SCCc3nnn[nH]3)c3ccccc3CO4)nc2c1 (centres undefined) ; its melting point = 142 to 147 °C

# compound `Clc1nccc(-c2ccc(Cl)c(Cl)c2)n1` ; its melting point = 126 to 127 °C

# compound `CN(C)c1ccc2c(c1)C(=O)N(c1ccc3c(c1)CCN3C)C2` ; its melting point = 268 to 270 °C

====

Each entry below carries its reported melting point.

- compound: "O=[N+]([O-])c1cccc(Cn2ccnc2)c1"
  data.value: "97 to 98 °C"

# compound `CCCC(=O)NS(=O)(=O)c1ccc(NC(=O)N2CCc3c(OC)ccc(N4CCN(C)CC4)c3C2)cc1` ; its melting point = 185 to 190 °C

# compound COc1ccc(OC2CCN(C)C2)c(C(N)=O)c1 (stereo unspecified) ; its melting point = 85 to 87 °C

# compound `COc1ccc2c(C(=O)C(F)(F)F)c[nH]c2c1` ; its melting point = 206 to 208 °C

# compound `CCOC(=O)C(=CNc1ccc(F)c(F)c1O)C(=O)OCC` ; its melting point = 178 to 180 °C

# compound `COC(=O)C1=C(O)c2c(c3ccccc3n2C)S(=O)(=O)N1C` ; its melting point = 189 to 190 °C

====

Each entry below carries its reported melting point.

Recorded results for 4 compounds are shown here.
- compound: "CSc1cc2c(cc1C(F)(F)F)N(C(=O)Nc1ccc(-c3csc(-c4cccnc4)n3)cc1)CC2"
  recorded.metric: "melting point"
  data.value: "> 25 °C"
- compound: "COC(=O)CN(C(=O)CCCOc1ccc2c(c1)CN1CC(=O)NC1=N2)C1CCCCC1"
  recorded.metric: "melting point"
  data.value: "185 to 186 °C"
- compound: "Cc1nnc(-c2ccc3occ(-c4cc(C(F)(F)F)ccc4Cl)c3c2)o1"
  recorded.metric: "melting point"
  data.value: "188 to 189 °C"
- compound: "Cc1cc2c(cc1Sc1ccc(C(=O)O)cn1)C(C)(C)CCC2(C)C"
  recorded.metric: "melting point"
  data.value: "257 to 260 °C"

# compound CCC(O)c1cnc2c(C)c(NC(=O)c3ccc(-c4ccc(F)cc4)cc3)ccc2c1 (stereo not given) ; its melting point = 204 to 208 °C

# compound `Nc1cccc2nc(=O)cccc12` ; its melting point = 175 to 178 °C

# compound `CC(C)(C)c1cc(-c2coc3c(C(C)(C)C)cc(C(C)(C)C)cc23)c(O)c(C(C)(C)C)c1` ; its melting point = 236 to 238 °C

# compound `COc1ccc(O)c(CC=Cc2ccccc2C#N)c1` ; its melting point = 72 to 74 °C

# compound `O=C([C@H]1CC[C@H](Nc2ncc3ncnc(Nc4ccc(F)c(Cl)c4)c3n2)CC1)N1CCOCC1` ; its melting point = 221 to 225 °C

# compound CN(C)c1ccc(S(=O)(=O)N2CC(OC(=O)C(C)(C)C)CC2=O)cc1 (stereo not given) ; its melting point = 117 to 118 °C

# compound CCCn1c2c(ccc1=O)C(NCCc1ccc(Cl)c(Cl)c1)CCC2 (stereo not given) ; its melting point = 105 to 107 °C

# compound O=C(O)C1Cc2cc3c(=O)c4c(F)cccc4oc3c(Cl)c2O1 (stereo not given) ; its melting point = 300 °C

# compound `COc1ccc(Br)c(C(=O)N2CCN(S(=O)(=O)c3ccc(F)cc3F)CC2)c1` ; its melting point = 194 °C

# compound `CCCCCc1cc2c(cc1/C=C/c1ccc(C(=O)O)cc1)C(C)(C)CCC2(C)C` ; its melting point = 173 to 174 °C

# compound `CCOc1cc(OCC)nc(-c2ccc(C=O)cc2)n1` ; its melting point = 87 to 88 °C

# compound `Cc1cc(O)c(C=O)c(C)c1Cl` ; its melting point = 90 to 92 °C

# compound `Cc1c(Cc2ccccc2)c(=O)n(Cc2ccccc2)c2cc(OCC(=O)NO)cc(OCC(=O)NO)c12` ; its melting point = 121 to 127 °C

# compound `CCN1C(=O)OC(C)(C)c2cc(-c3cc(F)cc(C#N)c3)ccc21` ; its melting point = 154 to 155 °C

# credit: a melting point compilation (Tetko et al.; mined from patent text by program, amines drawn as free bases though some values may be those of a salt)
